Assay notes: yeast display, Sf9 membrane polyspecificity reagent, FACS + sequencing; frameworks hold sequencing errors

Chain | polyreactivity (PSR sort gate)
QVQLVESGGGLVQAGGSLRLSCAASGLTFWYYAMGRYRHAPRKERELVATITWSGRTYYADSVKGRFTISRDNAKNTVYLQMNSLKTEDTAVYYCNAVKGRLQYSYDYWGQGTQVTVSS | high polyreactivity
QVQLVESGGGLVQAGGSLRLSCAAYGFIVPAYAMGWYRQAPGKERELVAAISWDGGSTYYADSVKGRFTISRDNAKNTVYLQMNSLKPEDTPVYYCAATFFADTWYGWYDYWGQGTQVTVSS | high polyreactivity

====

Assay notes: yeast display, Sf9 membrane polyspecificity reagent, FACS + sequencing; frameworks hold sequencing errors

Chain | polyreactivity (PSR sort gate)
QVQLVESGGGLVQAGGSLRLSCAASGSILPYYAMGWYRQAPGKERELVAAISVSGGGTYYADSVKGRFTISRDNAKNTVYLQMNSLKPEDTAVYYCARNVNAQKVLGGFDSWGQGTQVTVSS | low polyreactivity
QVQLVESGGGLVQAGGRLRLSCAASGLICNANPMGWYRQAPGKEREFVAAITTSGGKTYYADSVKGRFTISRDNAKYTVYLQMNSLKPEDTAVYYCAATDLYFWYPYWFAFEYDYWGLGTQVTVSS | high polyreactivity
QVQLVESGGGLVQAGGSLRLSCAASGSICDVNAMGWYRQAPGKEREMVAAISDSGGSTYYADSVKGRFTISRDTAKNTVYLQMNSLNPEDTSVYYCNADWSWYNYYDFDYWGQGTQVTVSS | low polyreactivity
QVQLVESGGGLVQAGGSHRLSCAASGRTFVFYAMGWYRPAPGKERELVAAISRSGGSTYYADSVKGRFTISRDNAKNTVFLQMNSLKPEDTAVSYCNARYTGSGGYWGQGTQVTVSS | high polyreactivity
QVQLVESGGGLVQAGGSLRLSCAASGFTFYVNAMGWYRQAPGKERELVAAISSSGTRTYYADSVKGRFTISRDKAKNTVYLQMNSLKPEDTAVYYCAARGQAYSGDRMYYWGQGTQVTVSS | high polyreactivity
QVQLVESGGGLVQAGGSLRLSCAASGSIFSYNAMGWSRQAPGNERELVARISYSGGSTYYADSVKGRFTISRDNAKNTVYLQMNSLKPEDTAVYYCAKRAYGWPYDYWGQGTQVTVSS | high polyreactivity
QVHLVESGGGLVQAGGSLRLSCAASGITFYLYAMGRYRQAPAKERELVAAINASGGSTYYADSVKGRFTISRDNAKNTVYLQMNSLKPEDSGVYYCAASTKKTRGFNYWGQGSQVTVSS | high polyreactivity
QVQLVESGGGLVQAGGSLRLSCAASGRTFSYYSMGWYRQAPGKERELVAAITSGGGRTYYADSVKGRFTISRDNAKNTVYLQMNRLKPEDTAVYYCNALYTLYNGYDYWGQGTQVTVSS | high polyreactivity
QLQLVESGGGLVQAGGSLRLSCAASGSIFVVNAMGWYRQAPGKERELVAAISRGGITNYADSVKGRFTISRDNAKNTVYLQMNILKPEDTAVYYCNARGSRWVKPERDYWGQGTQVTVSS | low polyreactivity
QVQLVESGGGLVQAGGSLRLSCAASGRTFRGYALGWYRQAPGKERELVAAISGGTTNYADSVKGRFTISRDNAKNTVYLQMNSLKPVDTAVYYCAAAQRQYWRYRLGYEYGSWGQGTQVTVSS | low polyreactivity
QVQLVESGGGLVQAGGSLRLSCAASGSIFPPYVMGWYRQAPGKERELVASITTSGGSTYYADSVKGRFTISRDNAKNTVYLQMNSLKPEDTAVYYCAARWYYGGKSAGPGGGYWGQGTQVTVSS | low polyreactivity

====

Assay notes: yeast display, Sf9 membrane polyspecificity reagent, FACS + sequencing; frameworks hold sequencing errors

Chain | polyreactivity (PSR sort gate)
QVQLVESGGGLVQAGGSLRLSCAASGNTFTKYAMGWYIQAPGKERELVAGITRGGSTNYADSVKGRFTISRDNAKNTVYLQMNSLKPEDTAVYYCNARPVYGSRFYSAVRMEYWGQGTPVTVSS | low polyreactivity
QVQLVESGGGLVQAGGSLRLSCAASGSIFYWYAMGWYRQAPGKEREFVAAISRSDGSTYYADSLKRRFTISRDNAKNTVYLEMNRLKPEDTAVYYCAAERYYFPRSYRYGYWGQGTQVTVSS | low polyreactivity

====

Assay notes: yeast display, Sf9 membrane polyspecificity reagent, FACS + sequencing; frameworks hold sequencing errors
Result type: polyreactivity (PSR sort gate)

Chain | Result
QVQLVESGGGLVQAGGSLRLSCAASGIIFPGNAMGWNSQAPGKVRELVAAITSSDGSTYYADSVKGRFTISRDNAKNTVYVQMNSLKPEDTALYYCAADFKGLFSSELDYWGQGTQVTVSS | low polyreactivity
QVQLVESGGGLVQAGGSLRLSCAASGGTFSGYTMGWYRQAPGKERELVAAINWSGGRTYYADSVKGRFTISRDNAKNTAYLQMNSLKPEDTAVYYSNKYGLYYREYDYWGQGTQVTVSS | high polyreactivity
QVQLVESGGGLVQAGGSLRLSCAASGFTFSSYAMGWYRQAPGKERELVAAITGGGSRTYYADSVKGRFTISRDNAKNTVYLQMYSLKPEDTAVYYCAKGLSTGRAYRGYDYWGQGTQVTVSS | high polyreactivity
QVQLGESGGGLVQAGGSLRLSCAASGSIFTGNAMGWYRQAPGKERELVAAITNGGITNYADSVKRRFTISRDNAKNTFYLQMNSLKPEDTAVYYCAADYVDFYSFRRFDYWGQGSQVTVSS | low polyreactivity
QVQLVESGGGLVQAGGSLRLSCAASGNIFDTYVMGWYRPAPGTERELVAAISSAGSTNYADSVKGRFTISRDNAKNTVYLQMNSLKPEDTAVYYCNADYWYYGYDYWGQGTQVTVSS | low polyreactivity
QVQLVESGGGLVQAGGSLRLSCAASGITFSVYAMGWYRQAPGKERELVASISSGGTSTYYADSVKGRFTISRDNAKNTVYLQMNSLKPEDTAVYYCAAYSYYTGDQYSYDYWGQGTQVTVSS | low polyreactivity
QVQLVESGGGLVQAGGSLRLSCAASGSIFPSYAMGWYRQAPGKERELVAAISSRGGSTYYADSVKGRFTISRDNAKNTVYLQMNSLKPEDTAVYYCAADWSYYRRHFDYWGQGTQVTVSS | high polyreactivity
QVQLVESGGGLVQAGGSLRLSCAASGYIFNYYAMGWYRQAPGKERELVAAITSGDSTYADSVKGRFTISRDNAKNTVYLQMNSLKPEDTAVYYCAAEISILPFVTPDTIYGYWGQGTQVTVSS | low polyreactivity
QVQLVESGGGLVQAGGSLRLSCAASGITFFGYAMGWYRQAPGKERELVATISRSGGSTSYADSVKGRFTISRDNAKNTVYLQMNSLKPEDTAVYYCNNRTPYLRPIMDYWGQGTQVTVSS | high polyreactivity
QVQLVESGGGLVQAGGSLRLSCAASGYTFYRNAMGWYRQAPGKERELVASLRDDGSTYYADSEKGRFTISRDNAKNTVYLHMNSLKPEDTAVYYCNSDYPYIWHKGARYWHENDYWGQGTQVTVSS | low polyreactivity
QVQLVESGGGLVQAGGSLRLSCAASGLTLFRYAMGWYRQAPGKERELVAAIDYGGGTYYADSVKGRFTISRDNAKNTVYLQMNSLKPEDTAVYYCAVEPEYKYYEGDYWGQGTQVTVSS | low polyreactivity

====

Assay notes: yeast display, Sf9 membrane polyspecificity reagent, FACS + sequencing; frameworks hold sequencing errors

Chain | polyreactivity (PSR sort gate)
QDQLVESGGGLVQAGGSLRLSCAASGSTFRHNAMGWYRQAPGKERELVATIRTSGGTTYYADSVKGRFTISRDNAKNTVYLHMNSLKPEDTAVYYCAAVSYLFLYQGYPIAYPMYYWGQGTQVTLSS | low polyreactivity
QVQLVESGGGLVQAGGSLRLSCAASGFTFRWYAMRWYRQAPGKERELVADITRSGDTNYAYSVKGRFTISRDNAKNTVYLQMKSQKPEDTAVYSCAKDWAYRRHWVGFYYWGQGTQVTVSA | low polyreactivity
QVQLVESGGGLVQAGGSLRLSCAASGSIFETNAMGWYRQAPGKERELVAAITGSGGSTYYADSVKGRFTISRDNAKNTVYLQMNSLIPVDTEVYYCAADSSGQSRFGYWGQGTQVTVSS | low polyreactivity
QFQLVESGGGLVQAGGSLRLSCAASGRIFDFYAMGWYREAPGKERELVAAISWRGGSTYYAHSVKGRFTISRDNAKNTVYLQMNSLKPEDTAVYYCATRFGPRYYWGQGTQVTVSS | low polyreactivity
QVQLVESGGGLVQAGGSLRLSCAASGSIFYSYAMGWYRQAPGKERELVAAISRSGVSTYYADSVKGRFTISRDNAKNTVYLQMNSLKPEDTAVYYCASPYFVSYQGYDYWGQGTQVTVSS | high polyreactivity
QVQLVVSGGGLVQAGGSLRLSCAASGRFFGYYARGWYRQAPGEERELVAAITRGGSTNYADSVKGRFTISRDNAKNTVYLQMNSLKPEDTAVYYCNARRYRPGTASYDYWGQGTQVTVSS | high polyreactivity
QVQLVESGGGLVQAGGSLRLSCAASGFTFDIYAMGWYRQAPGKERELVATISRSGGTTYYADSVKGRFTISRDNAKNTVYLQMNSLKPEDTAVYYCAAGAYSYRYRYRMDYWGQGTQVTVSS | high polyreactivity
QVQLVESGGGLVQAGGSLRLSCAASGRTFFVNAMGWYRQAPGKERELVATITFSGDSTYYADSVKGRFTISRDNAKNTVYLQMNSLKPEDTAVYYCAVRWPSARIPVKLDYWGQGTQVTVSS | high polyreactivity
QVQLVESGGGLVQAGGSLRLSCAASGFTFQYYSMGWYRQAPGKERELVAAISSSGGSTYYADSVKGRFTISRDNAENTVYLQMNSLKPEDTAVYYCAIRVSTYGFSGYDYWGQGTQVTVSS | high polyreactivity
QVQLVESGGGLVQAGGSLRLSCAASGRIFRLYAMGWYRQAPGKERELVATITSGGTYYADSVKGRFTISRDNAKNTVYLQMNSLKPEDTAVYYCAADVYPGYVGSEEYDYWGQGTQETVSS | low polyreactivity
QVQLVESGGGLVQAGGSLRLSCAASGSIFRRFAMGWYRQAPGKEREFVAAISRSSDNTSYADSVKGRFTISRDNAKNTVYLQMNSLKPEDTAVYYCNADASWYGYWYYYWGQGTQVTVSS | low polyreactivity
QVQLVESGGGLVQAGGSLRLSCAASGNIFPWYAMGWYRQAPGKERELVASITVSGGRTYYADSVKGRFTISRDNAKNTVYLQMNSLKPEDTAVYYCNKYLVWYVPGAYNSWGQGTQVTVSS | high polyreactivity
QVQLVESGGGLVQAGGSLRLSCAASGSTFGVNAMGWYRQAPGKERELVAAIRSAVPTYYADSVKGRFTISRDNAKNTVYLQMNSLKPEDTAVYYCAKRWSAKYGFYYWGQGTQVTVSS | high polyreactivity
QVQLGESGGGLVEAGGSLRLSCAASGSTCKFYVMGWYRQAPGKERELVAAIAIGGSTNYADSVKGRFTISRDNAKNTVSVQMNSLKPEDTAVYYCAAELLQIHYYYVYLSPSFKCDYWGQGTQVTGSS | low polyreactivity
QVQLVESGGGLVQAGGSLRLSCAASGRIFPVNAMGWYRQAPGKEREFVARISRRGGSTYYADSVKGRFTISRDYEKNTVYLQMNSLKPEDTAVYYCAAVSSRYSYDYWGQGTQVTVSS | high polyreactivity
QVQLVESGGGLVQAGGSLRLSCAASGSIFVRNVMGWYRQAPGKERELVAAISGSGGSTYYADSVKGRFTISRDNAKNTVYLQMNSLKPEDTAVYYCAAPRNLYGVYSYYYWGQGTQVTVSS | high polyreactivity
QVQLVESGGGLVQAGGSLRLSCAASGIIFWYNARGWYRQAPGKERELVASISTGGRTYYADSVKGRFTISRDNAKNTVYLQMNSLKPEDTAVYYCAAASRVGFLYYYWGQGTQVTVSS | low polyreactivity
QVQLVESGGGLVQAGGSLRLSCAASGSTFFHYARGWYRQAPGKERELVAAISGSGGSTYYADSVKGRFTISRDNAKNTVYLQMNSLKPEDTAVYYCNARVWHYTSRTTFDYWGQGTQVTVSS | low polyreactivity
QVQLVESGGGLVQAGGSLRLRCAASGFIYIRNAMGWYRQAPGKERELVAAITRSGGRTYYADSVKGRFTISRDNAKNTVYLQMNSLIPEDTAVYYCASDAEAAWGQGTQVTVSS | high polyreactivity
QVQLVESGGGLVQAGGSLRLSCAASGLTSNGYDMGWYRQAPGKERELVAGITSGGSPYYADSVKGRFTISRDNAKNTVYLQMNSLKPEDTAVYYCNADVTYYIVWEYDYWGQGTQVTVSS | low polyreactivity
QVQLVESGGGLVQAGGSLRLSCAASGRTFQRNAMGWYRQAPGKERELVAAISWRGGSTYYADSVKGRFTISRDNAKNTVYLQMNSLKPEDTAVYYCNTYPSQYLWYDYWGQGTQVTVSS | high polyreactivity
